test: preservation of ATP in cytokine-treated beta cells – cell-based, ATP luminescence, single point, primary screen (AID 488910); conditions: INS-1E cytokine-induced death, 48 h, at 10 µM, active compounds read high, normalised: neutral wells 0, positive control 100
About 25 (0.1%) of roughly 20,000 compounds were called active. What follows is part of a selection rich in actives, with near analogues and random picks from the rest.
Entries and their measured protection from cytokine-induced ATP loss follow.
Express your answer in %, writing the number without its unit.

Before answering, review these 4 worked examples.
Incoming: Give the reported value of protection from cytokine-induced ATP loss for this record: "Cc1ccc(S(=O)(=O)Nc2ccc3c(c2)CC(=O)N([C@H](C)CO)C[C@@H](C)[C@H](CN(C)S(=O)(=O)c2c(C)noc2C)O3)cc1"
Outgoing: 3.93

Incoming: Give the reported value of protection from cytokine-induced ATP loss for this record: "Cc1noc(C)c1NC(=O)Nc1ccc2c(c1)C(=O)N([C@@H](C)CO)C[C@H](C)[C@@H](CN(C)C(=O)Nc1ccccc1)O2"
Outgoing: -2.87

Incoming: Give the reported value of protection from cytokine-induced ATP loss for this record: "Cc1noc(C)c1NC(=O)Nc1ccc2c(c1)C(=O)N([C@@H](C)CO)C[C@H](C)[C@H](CN(C)Cc1ccc(-c3ccccc3)cc1)O2"
Outgoing: -3.13

Incoming: Give the reported value of protection from cytokine-induced ATP loss for this record: "C[C@H]1CN([C@@H](C)CO)C(=O)c2cccc(NC(=O)C3CCOCC3)c2O[C@H]1CN(C)S(C)(=O)=O"
Outgoing: 10.3

Next:
Incoming: Give the reported value of protection from cytokine-induced ATP loss for this record: "C[C@@H]1CN([C@@H](C)CO)C(=O)Cc2cc(NS(=O)(=O)c3cccs3)ccc2O[C@@H]1CN(C)S(=O)(=O)c1ccc(F)cc1"
Outgoing: 4.38

Incoming: Give the reported value of protection from cytokine-induced ATP loss for this record: "Cc1ccc(S(=O)(=O)Nc2ccc3c(c2)C(=O)N([C@H](C)CO)C[C@H](C)[C@@H](CN(C)C(=O)Nc2ccc4c(c2)OCO4)OCCCC[C@@H](C)O3)cc1"
Outgoing: -3.08

Incoming: Give the reported value of protection from cytokine-induced ATP loss for this record: "C[C@@H]1CN([C@H](C)CO)C(=O)c2cccc(NC(=O)Nc3ccc4c(c3)OCO4)c2O[C@H]1CN(C)S(=O)(=O)c1ccc(Cl)cc1"
Outgoing: -2.56

###

assay: preservation of ATP in cytokine-treated beta cells – cell-based, ATP luminescence, single point, primary screen (AID 488910); settings: INS-1E cytokine-induced death, 48 h, at 10 µM, active compounds read high, normalised: neutral wells 0, positive control 100
The whole screen tested about 20,000 compounds, of which about 25 (0.1%) were called active. What follows is part of a selection rich in actives, with near analogues and random picks from the rest.
Entries and their measured protection from cytokine-induced ATP loss follow.
Express your answer in %, writing the number without its unit.

Before answering, review these 4 worked examples.
Incoming: Give the reported value of protection from cytokine-induced ATP loss for this record: "C[C@H](CO)N1C[C@H](C)[C@@H](CN(C)Cc2ccc(Cl)c(Cl)c2)Oc2ccc(NS(=O)(=O)c3ccccc3)cc2C1=O"
Outgoing: -24.5

Incoming: Give the reported value of protection from cytokine-induced ATP loss for this record: "C[C@@H]1CCCCO[C@H](CN(C)S(=O)(=O)c2ccccc2)[C@@H](C)CN([C@H](C)CO)C(=O)c2cc(NC(=O)Nc3ccc(F)cc3)ccc2O1"
Outgoing: -6.46

Incoming: Give the reported value of protection from cytokine-induced ATP loss for this record: "CC(C)NC(=O)Nc1ccc2c(c1)CC(=O)N([C@H](C)CO)C[C@@H](C)[C@@H](CN(C)C(=O)Nc1ccc3c(c1)OCO3)O2"
Outgoing: 9.22

Incoming: Give the reported value of protection from cytokine-induced ATP loss for this record: "CC(C)NC(=O)Nc1ccc2c(c1)C(=O)N([C@H](C)CO)C[C@H](C)[C@@H](CN(C)S(C)(=O)=O)OCCCC[C@@H](C)O2"
Outgoing: 1.03

Next:
Incoming: Give the reported value of protection from cytokine-induced ATP loss for this record: "O=C(N/N=C/c1c[nH]c2ccccc12)c1ccccc1O"
Outgoing: -18.7

Incoming: Give the reported value of protection from cytokine-induced ATP loss for this record: "COc1ccc(NC(=O)Nc2cccc3c2O[C@H](CN(C)S(=O)(=O)c2ccc(F)cc2)[C@H](C)CN([C@H](C)CO)C3=O)cc1"
Outgoing: -2.75

Incoming: Give the reported value of protection from cytokine-induced ATP loss for this record: "Cc1ccc(S(=O)(=O)Nc2ccc3c(c2)CC(=O)N([C@@H](C)CO)C[C@H](C)[C@H](CN(C)Cc2ccccc2)O3)cc1"
Outgoing: 12.2

Incoming: Give the reported value of protection from cytokine-induced ATP loss for this record: "Cc1ccc(S(=O)(=O)Nc2ccc3c(c2)C(=O)N([C@H](C)CO)C[C@H](C)[C@H](CN(C)Cc2ccc(C(=O)Nc4ccccc4N)cc2)OCCCC[C@@H](C)O3)cc1"
Outgoing: 1.83

Incoming: Give the reported value of protection from cytokine-induced ATP loss for this record: "C[C@H]1CN([C@@H](C)CO)C(=O)Cc2cc(NS(=O)(=O)c3cccs3)ccc2O[C@@H]1CN(C)S(=O)(=O)c1cn(C)cn1"
Outgoing: 6.75

Incoming: Give the reported value of protection from cytokine-induced ATP loss for this record: "COc1ccc(NC(=O)N(C)C[C@H]2Oc3ccc(NC(=O)Nc4ccc5c(c4)OCO5)cc3C(=O)N([C@H](C)CO)C[C@H]2C)cc1"
Outgoing: 3.2

Incoming: Give the reported value of protection from cytokine-induced ATP loss for this record: "C[C@@H]1CN([C@@H](C)CO)C(=O)c2cc(NC(=O)C3CCCCC3)ccc2O[C@@H]1CN(C)Cc1ccc(C(=O)O)cc1"
Outgoing: 3.82

Incoming: Give the reported value of protection from cytokine-induced ATP loss for this record: "C[C@H]1CN([C@@H](C)CO)C(=O)c2cccc(NC(=O)C3CCCCC3)c2O[C@H]1CN(C)C(=O)NC1CCCCC1"
Outgoing: 6.52

Incoming: Give the reported value of protection from cytokine-induced ATP loss for this record: "C[C@@H]1CN([C@H](C)CO)C(=O)c2cccc(NS(=O)(=O)c3ccccc3)c2O[C@@H]1CN(C)Cc1ccc(C(=O)O)cc1"
Outgoing: 2.31

Incoming: Give the reported value of protection from cytokine-induced ATP loss for this record: "C[C@H]1CN([C@@H](C)CO)C(=O)Cc2cc(NC(=O)Nc3ccc(C(F)(F)F)cc3)ccc2O[C@@H]1CN(C)S(=O)(=O)c1ccc(Cl)cc1"
Outgoing: -4.37

###

assay: preservation of ATP in cytokine-treated beta cells – cell-based, ATP luminescence, single point, primary screen (AID 488910); settings: INS-1E cytokine-induced death, 48 h, at 10 µM, active compounds read high, normalised: neutral wells 0, positive control 100
The campaign covered roughly 20,000 compounds. About 25 (0.1%) were called active. The sample as a whole holds a higher share of actives than the screen did.
property.measured: protection from cytokine-induced ATP loss (%)
Express your answer in %, writing the number without its unit.

Incoming: Give the reported value of protection from cytokine-induced ATP loss for this record: "COC(=O)CCCCCCC(=O)N/N=C/c1cccc(Br)c1"
Outgoing: 21.3

Incoming: Give the reported value of protection from cytokine-induced ATP loss for this record: "CN(C)CCCOc1ccc(/C=N/NC(=O)c2cccc(C(=O)NO)c2)cc1"
Outgoing: -4.67

Incoming: Give the reported value of protection from cytokine-induced ATP loss for this record: "Cc1noc(C)c1NC(=O)N(C)C[C@H]1OCCCC[C@@H](C)Oc2ccc(NC(=O)NC(C)C)cc2C(=O)N([C@H](C)CO)C[C@@H]1C"
Outgoing: -5.7

Next:
Incoming: Give the reported value of protection from cytokine-induced ATP loss for this record: "C[C@H]1CN([C@@H](C)CO)C(=O)c2cccc(NC(=O)Nc3ccc(C(F)(F)F)cc3)c2O[C@@H]1CN(C)Cc1ccccc1"
Outgoing: -19.3

Incoming: Give the reported value of protection from cytokine-induced ATP loss for this record: "Cc1ccc(S(=O)(=O)N(C)C[C@@H]2Oc3c(NC(=O)Nc4ccc(F)cc4)cccc3C(=O)N([C@H](C)CO)C[C@H]2C)cc1"
Outgoing: 40.9

Incoming: Give the reported value of protection from cytokine-induced ATP loss for this record: "O=C(O)CCCCCC(=O)N/N=C/c1ccco1"
Outgoing: 17.1

Incoming: Give the reported value of protection from cytokine-induced ATP loss for this record: "CC(C)NC(=O)Nc1ccc2c(c1)C(=O)N([C@@H](C)CO)C[C@@H](C)[C@H](CN(C)Cc1ccc(-c3ccccc3)cc1)O2"
Outgoing: -8.83

Incoming: Give the reported value of protection from cytokine-induced ATP loss for this record: "Cc1noc(C)c1NC(=O)N(C)C[C@@H]1Oc2ccc(NS(C)(=O)=O)cc2C(=O)N([C@@H](C)CO)C[C@@H]1C"
Outgoing: 1.81

Where do the numbers come from? From PubChem BioAssay AID488910.
